system: MCM2 phosphorylation in COLO205 cells; assay: Inhibitory effect on MCM2 phosphorylation using cells (Western blot); format: cell-based; conditions: Homo sapiens, COLO 205, 0.1 μM test compound, 24 hours, class by percent phosphorylation of MCM2, read-out: Test Example 2 Inhibitory effect on MCM2 phosphorylation

| Compound | System Name | inhibition at 0.1 µM |
| --- | --- | --- |
| Cc1ccsc1CNC1=CC(=O)/C(=C/c2c[nH]c3ncccc23)O1 [Example 242] | MCM2 phosphorylation in COLO205 cells | < 20% |
| Cc1cc(OCCO)ccc1NC1=C(C(=O)OC(C)C)C(=O)/C(=C/c2c[nH]c3ncccc23)O1 [Example 157] | MCM2 phosphorylation in COLO205 cells | 20 to 50% |
| CCOC(=O)C1=C(Nc2ccc(NCCO)cc2C)O/C(=C\c2c[nH]c3ncccc23)C1=O [Example 126] | MCM2 phosphorylation in COLO205 cells | < 20% |
| CCOC(=O)C1=C(N2CCCCCC2)O/C(=C\c2c[nH]c3ncccc23)C1=O [Example 63] | MCM2 phosphorylation in COLO205 cells | < 20% |
| CCOC(=O)C1=C(Nc2ccc3cn[nH]c3c2)O/C(=C\c2c[nH]c3ncccc23)C1=O [Example 68] | MCM2 phosphorylation in COLO205 cells | < 20% |
